Where do these numbers come from? They come from the Immune Epitope Database (IEDB).

Target: HLA-B*08:02
Assay: IEDB peptide-MHC binding, purified MHC/direct/fluorescence; filed as Kd, often an IC50 or EC50 that approximates it; bounds were set here for any values at or beyond the usual limits of such assays
Conditions: source organism: Francisella tularensis subsp. tularensis FSC033
measurement_label: Kd

Query block: State the recorded Kd for this entry: IYTVIYYIF
Result block: ≥ 20 µM

###

Target: HLA-B*35:01
Assay: IEDB peptide-MHC binding, purified MHC/competitive/radioactivity; filed as Kd, often an IC50 or EC50 that approximates it; bounds were set here for any values at or beyond the usual limits of such assays
Conditions: source organism: Mammarenavirus choriomeningitidis
Listed below: pKd values for each entry.
Conceptually, pKd converts a concentration in mol/L into minus its log10.

| biosequence | pKd |
| --- | --- |
| CPFLFLMLL | 5.85 |

Query block: State the recorded pKd for this entry: LPHIIDEVM
Result block: 7.82
